This listing pairs compounds with measured inhibition at 10 µM.
# experimental_target: recombinant human 5-HT2C receptor (Homo sapiens)
# Construct: expressed in transfected cells; host or cells: CHO-K1
# Sequence (P28335 33-458): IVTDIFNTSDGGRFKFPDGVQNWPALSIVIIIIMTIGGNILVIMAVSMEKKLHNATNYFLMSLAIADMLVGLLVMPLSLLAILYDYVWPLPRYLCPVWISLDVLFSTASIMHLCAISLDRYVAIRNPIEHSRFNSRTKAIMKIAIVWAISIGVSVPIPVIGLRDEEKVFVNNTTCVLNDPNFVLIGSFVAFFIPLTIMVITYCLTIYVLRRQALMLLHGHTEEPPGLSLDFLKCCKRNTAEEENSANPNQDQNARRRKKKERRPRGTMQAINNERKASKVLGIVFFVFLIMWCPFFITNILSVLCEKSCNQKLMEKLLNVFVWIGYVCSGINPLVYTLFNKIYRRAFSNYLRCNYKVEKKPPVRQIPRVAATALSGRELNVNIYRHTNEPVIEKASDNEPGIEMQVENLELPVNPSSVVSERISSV
# measurement_description: Radioligand binding to serotonin receptor 5-HT2C ([3H] Mesulergine, CHO-K1 membranes)
# condition_parameters: read-out: 5-HT2C % inhibition
Where a name gives a salt, the structure may show the parent alone.
// return numeric value only (unit: %, not printed)

Known results for compounds:
compound	inhibition at 10 µM (%)
Cc1ccc2c(c1)c1c(n2Cc2ccccc2)CCCN(C)C1 [1.10(4)·HCl]	98
CN1CCc2c(c3cc(F)ccc3n2Cc2ccccc2)C1 [1.9(3)·HCl]	100
Cc1ccc2c(c1)c1c(n2CCc2ccc(C(F)(F)F)cc2)CCN(C)C1 [1.1.2(1-18)·HCl]	99
COc1ccc(CCn2c3c(c4cc(C)ccc42)CN(C)CC3)cc1 [1.1.2(1-14)·HCl]	97
Cc1ccc2c(c1)c1c(n2CCc2ccc(F)cc2)CCN(C)C1 [1.1.2(1-16)·HCl]	99
Cc1ccc2c(c1)c1c(n2CCCc2ccccc2)CCN(C)C1 [1.3.3(2)·HCl]	98
CN1CCc2c(c3ccccc3n2Cc2ccccc2)C1.Cl [1.9(1)·HCl]	97
CN1CCc2c(c3cc(F)ccc3n2CCCc2ccccc2)C1 [1.3.3(8)·HCl]	97

Bench note: what inhibition at 10 µM did Cc1ccc2c(c1)[C@@H]1CN(C)CCC[C@@H]1N2CCc1ccc(C)nc1 (relative stereo) [1.6.1(2)·3HCl] show? 4

What do you have for CN1CCc2c(c3cc(C(F)(F)F)ccc3n2CCc2ccccc2)C1 [1.1.2(1-7)·HCl] ? 92
